Recorded below: IC50, system binding between Nrf2 and Keap1 (Homo sapiens (Human)).

compound | obs.value
CCOc1cc2c(cc1Cl)S(=O)(=O)N(Cc1cc(C(CC(=O)O)c3ccc4c(nnn4C)c3C)cc3c1CCC3)C[C@@H](CC)O2 (stereo partly drawn) [Example 18] | 30 to 100 nM
CCOc1ccc2c(n1)O[C@H](CC)CN(Cc1cc([C@@H](CC(=O)O)c3ccc4c(nnn4C)c3C)cc3ccsc13)S2(=O)=O [Example 112] | ≤ 10 nM

// next entry
Reported IC50, compound CC[C@@H]1CN(Cc2cc(C(CC(=O)O)c3cc(C4CC4)c4c(nnn4C)c3C)cc3ccoc23)S(=O)(=O)c2cc(Cl)cnc2O1 (stereo partly drawn) [Example 110] : ____
30 to 100 nM

* * *

test.name: Measurement test of plasma drug concentration after oral administration in rats
Assay type: in vivo
condition.info: rat, plasma, 10 mg/kg, male SD rats, 10 mg/2 mL/kg in 0.5% methylcellulose, read-out: AUC0-24
result.type: AUC(0-t) (µM·h)
One number for each entry, in µM·h.

Completed entries (count: 3):
molecule | measure.unit | obs.value
CC[C@@H]1CN(Cc2cc([C@H](CC(=O)O)c3ccc4c(nnn4C)c3C)cc3ccsc23)S(=O)(=O)c2cc(Cl)cnc2O1 | µM·h | 0.03
CC[C@@H]1CN(Cc2cc([C@@H](CC(=O)O)c3ccc4c(nnn4C)c3C)cc3ccsc23)S(=O)(=O)c2cc(Cl)cnc2O1 | µM·h | 0.023
CC[C@@H]1CN(Cc2cc([C@@H](CC(=O)O)c3ccc4c(nnn4C)c3C)cc3c2CCC3)S(=O)(=O)c2cc(Cl)cnc2O1 | µM·h | 0.035

// next entry
Reported AUC(0-t), compound CC[C@@H]1CN(Cc2cc([C@H](CC(=O)O)c3ccc4c(nnn4C)c3C)cc3c2CCC3)S(=O)(=O)c2cc(Cl)cnc2O1 : ____
0.05

* * *

assay.system: binding between Nrf2 and Keap1 (Homo sapiens (Human), UniProt Q14145)
Sequence (Q14145 325-624 limits assumed): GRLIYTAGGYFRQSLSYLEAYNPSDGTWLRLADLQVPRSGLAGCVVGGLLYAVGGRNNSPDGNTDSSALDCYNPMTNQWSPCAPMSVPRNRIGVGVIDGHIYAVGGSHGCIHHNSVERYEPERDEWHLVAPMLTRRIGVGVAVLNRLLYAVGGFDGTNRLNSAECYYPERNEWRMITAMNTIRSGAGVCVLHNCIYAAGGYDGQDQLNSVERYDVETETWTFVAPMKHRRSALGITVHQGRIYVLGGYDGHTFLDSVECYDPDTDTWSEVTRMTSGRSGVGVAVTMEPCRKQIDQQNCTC
result.type: IC50

molecule | assay.system | IC50
CC[C@@H]1CN(Cc2cc(C(CC(=O)O)c3ccc4c(nnn4C)c3C)cc3c2CCC3)S(=O)(=O)c2c(Cl)cccc2O1 (stereo partly drawn) | binding between Nrf2 and Keap1 (Homo sapiens (Human), UniProt Q14145) | ≤ 10 nM
CC[C@@H]1CN(Cc2cc([C@H](CC(=O)O)c3cc(C4CC4)c4c(nnn4C)c3C)cc3ccsc23)S(=O)(=O)c2cc(Cl)cnc2O1 | binding between Nrf2 and Keap1 (Homo sapiens (Human), UniProt Q14145) | ≤ 10 nM
CC[C@@H]1CN(Cc2cc(C(CC(=O)O)c3ccc4c(nnn4C)c3C)cc3c2CCC3)S(=O)(=O)c2ccc3ccccc3c2O1 (stereo partly drawn) | binding between Nrf2 and Keap1 (Homo sapiens (Human), UniProt Q14145) | 30 to 100 nM
CCC1c2ncccc2O[C@H](CC)CN1Cc1cc([C@H](CC(=O)O)c2ccc3c(nnn3C)c2C)cc2ccsc12 (single isomer, unassigned) | binding between Nrf2 and Keap1 (Homo sapiens (Human), UniProt Q14145) | ≤ 10 nM
CC[C@@H]1CN(Cc2cc(C(CC(=O)O)c3ccc4c(nnn4C)c3C)cc3c2CCC3)S(=O)(=O)c2cccc(Cl)c2O1 (stereo partly drawn) | binding between Nrf2 and Keap1 (Homo sapiens (Human), UniProt Q14145) | ≤ 10 nM

Each of the following entries comes with a recorded value; kindly state IC50 for each.
1. Cc1c([C@H](CC(=O)O)c2cc(CN3CC4(CC4)Oc4ccc(O)nc4[C@H]3C)c3sccc3c2)ccc2c1nnn2C (single isomer, unassigned)
2. CC[C@@H]1CN(Cc2cc([C@@H](CC(=O)O)c3cc(OC(F)F)c4c(nnn4C)c3C)cc3c2CCC3)S(=O)(=O)c2cc(Cl)cnc2O1
3. CC[C@@H]1CN(Cc2cc(C(CC(=O)O)c3ccc4c(nnn4C)c3C)cc3c2CCC3)S(=O)(=O)c2ccc(Cl)cc2O1 (stereo partly drawn)
4. CC[C@@H]1CN(Cc2cc([C@H](CC(=O)O)c3cc(OC(F)(F)F)c4c(nnn4C)c3C)cc3ccsc23)S(=O)(=O)c2cc(Cl)cnc2O1

["10 to 30 nM", "≤ 10 nM", "30 to 100 nM", "10 to 30 nM"]

Each of the following entries comes with a recorded value; kindly state IC50 for each.
1. CC[C@@H]1CN(Cc2cc([C@@H](CC(=O)O)c3ccc4c(nnn4C)c3C)cc3c2CCC3)S(=O)(=O)c2cc(C)cnc2O1
2. CC[C@@H]1CN(Cc2cc(C(CC(=O)O)c3cc(C4CC4)c4c(nnn4C)c3C)cc3ccsc23)S(=O)(=O)c2cc(Cl)cnc2O1 (stereo partly drawn)
3. CC[C@@H]1CN(Cc2cc([C@@H](CC(=O)O)c3ccc4c(nnn4C)c3C)cc3ccsc23)S(=O)(=O)c2cc(Cl)cnc2O1

1. ≤ 10 nM
2. 30 to 100 nM
3. ≤ 10 nM

* * *

Recorded below: IC50, system binding between Nrf2 and Keap1 (Homo sapiens (Human)).

Completed entries (count: 2):
molecule | IC50
CC[C@@H]1CN(Cc2cc([C@@H](c3ccc4c(nnn4C)c3C)C(C)(C)C(=O)O)cc3c2CCC3)[C@@H](C)c2ncccc2O1 [Example 89] | ≤ 10 nM
CC[C@@H]1CN(Cc2cc(C(CC(=O)O)c3ccc4c(nnn4C)c3C)cc3c2OCC3)S(=O)(=O)c2cc(Cl)cnc2O1 (stereo partly drawn) [Example 91] | 10 to 30 nM

Reported IC50, molecule CC[C@@H]1CN(Cc2cc(C(CC(=O)O)c3ccc4c(nnn4C)c3C)cc3c2CCC3)S(=O)(=O)c2cc(C(F)(F)F)cnc2O1 (stereo partly drawn) [Example 25] : ____
10 to 30 nM

* * *

test.name: Measurement test of plasma drug concentration after oral administration in rats
Assay type: in vivo
condition.info: male SD rats, 10 mg/2 mL/kg in 0.5% methylcellulose
result.type: maximam plasma concentration (µM)
One number for each entry, in µM.

molecule | measure.unit | maximam plasma concentration
CC[C@@H]1CN(Cc2cc([C@@H](CC(=O)O)c3ccc4c(nnn4C)c3C)cc3ccsc23)S(=O)(=O)c2cc(Cl)cnc2O1 | µM | 0.005
CC[C@@H]1CN(Cc2cc([C@H](CC(=O)O)c3ccc4c(nnn4C)c3C)cc3c2CCC3)S(=O)(=O)c2cc(Cl)cnc2O1 | µM | 0.029
CC[C@@H]1CN(Cc2cc([C@H](CC(=O)O)c3ccc4c(nnn4C)c3C)cc3ccsc23)S(=O)(=O)c2cc(Cl)cnc2O1 | µM | 0.009

// next entry
Reported maximam plasma concentration, molecule CC[C@@H]1CN(Cc2cc([C@@H](CC(=O)O)c3ccc4c(nnn4C)c3C)cc3c2CCC3)S(=O)(=O)c2cc(Cl)cnc2O1 : ____
0.006

* * *

assay.system: binding between Nrf2 and Keap1 (Homo sapiens (Human))
For each of the compounds below, state its IC50.

Completed entries (count: 4):
compound | IC50
CC[C@@H]1CN(Cc2cc([C@@H](CC(=O)O)c3cc(C)c4c(nnn4C)c3C)cc3c2CCC3)S(=O)(=O)c2cc(Cl)cnc2O1 | ≤ 0.01 µM
CC[C@@H]1CN(Cc2cc(C(CC(=O)O)c3ccc4c(nnn4C)c3C)cc3ccsc23)[C@H](C)c2ncccc2O1 (stereo partly drawn) | 0.03 to 0.1 µM
CC[C@@H]1CN(Cc2cc([C@H](CC(=O)O)c3cc(OC(F)F)c4c(nnn4C)c3C)cc3c2CCC3)S(=O)(=O)c2cc(Cl)cnc2O1 | ≤ 0.01 µM
CC[C@@H]1CN(Cc2cc([C@@H](CC(=O)O)c3cc(C4CC4)c4c(nnn4C)c3C)cc3ccsc23)S(=O)(=O)c2cc(Cl)cnc2O1 | ≤ 0.01 µM

Each of the following entries comes with a recorded value; kindly state IC50 for each.
1. CCOc1ccc2c(n1)O[C@H](CC)CN(Cc1cc(C(CC(=O)O)c3ccc4c(nnn4C)c3C)cc3ccsc13)S2(=O)=O (stereo partly drawn)
2. C[C@@H]1CN(Cc2cc(C(CC(=O)O)c3ccc4c(nnn4C)c3F)cc3c2CCC3)S(=O)(=O)c2ccccc2O1 (stereo partly drawn)
3. CC[C@@H]1CN(Cc2cc(C(CC(=O)O)c3ccc4c(nnn4CCN(C)C)c3C)cc3ccsc23)S(=O)(=O)c2cc(Cl)cnc2O1 (stereo partly drawn)

["0.01 to 0.03 µM", "≤ 0.01 µM", "0.03 to 0.1 µM"]

Each of the following entries comes with a recorded value; kindly state IC50 for each.
1. CC[C@@H]1CN(Cc2cc([C@H](CC(=O)O)c3ccc4c(nnn4C)c3C)cc3ccsc23)S(=O)(=O)c2cc(Cl)c(F)cc2O1
2. C[C@@H]1CN(Cc2cc(C(CC(=O)O)c3ccc4c(nnn4C)c3Cl)cc3c2CCC3)S(=O)(=O)c2ccccc2O1 (stereo partly drawn)
3. CC[C@@H]1CN(Cc2cc([C@H](CC(=O)O)c3cc(Cl)c4c(nnn4C)c3C)cc3ccsc23)S(=O)(=O)c2cc(Cl)cnc2O1
4. CC[C@@H]1CN(Cc2cc([C@H](CC(=O)O)c3cc(C4CC4)c4c(nnn4C)c3C)cc3c2CCC3)[C@@H](C)c2ncccc2O1
5. CC[C@@H]1CN(Cc2cc(C(CC(=O)O)c3ccc4c(nnn4CC(C)(C)O)c3C)cc3ccsc23)S(=O)(=O)c2cc(Cl)cnc2O1 (stereo partly drawn)

≤ 0.01 µM
≤ 0.01 µM
≤ 0.01 µM
≤ 0.01 µM
0.01 to 0.03 µM

Each of the following entries comes with a recorded value; kindly state IC50 for each.
1. CC[C@@H]1CN(Cc2cc(C(CC(=O)O)c3cc(OC)c4c(nnn4C)c3C)cc3ccsc23)S(=O)(=O)c2cc(Cl)cnc2O1 (stereo partly drawn)
2. CC[C@@H]1CN(Cc2cc([C@H](CC(=O)O)c3ccc4c(nnn4C)c3C)cc3ccsc23)S(=O)(=O)c2cc(Cl)cnc2O1
3. CC[C@@H]1CN(Cc2cc([C@@H](CC(=O)O)c3ccc4c(nnn4C)c3C)cc3ccsc23)C(C)c2nc(O)ccc2O1 (single isomer, unassigned)
4. CC[C@@H]1CN(Cc2cc(C(CC(=O)O)c3cc(O)c4c(nnn4C)c3C)cc3ccsc23)[C@@H](C)c2ncccc2O1 (single isomer, unassigned)
5. CC[C@@H]1CN(Cc2cc(C(CC(=O)O)c3cc(C4CC4)c4c(nnn4C)c3C)cc3[nH]ccc23)[C@@H](C)c2ncccc2O1 (stereo partly drawn)

1: 0.01 to 0.03 µM; 2: ≤ 0.01 µM; 3: 0.01 to 0.03 µM; 4: ≤ 0.01 µM; 5: 0.01 to 0.03 µM

Each of the following entries comes with a recorded value; kindly state IC50 for each.
1. Cc1c(C(CC(=O)O)c2cc3c(c(CN4CC(C)(C)Oc5ncccc5S4(=O)=O)c2)CCC3)ccc2c1nnn2C (stereo not drawn)
2. CC[C@@H]1CN(Cc2cc(C(CC(=O)O)c3ccc4c(nnn4C)c3C)cc3c2CCC3)S(=O)(=O)c2ccc(C)nc2O1 (stereo partly drawn)

0.01 to 0.03 µM
0.01 to 0.03 µM
